Target: T1, human ANGPT2 (SPR analyte) (human, UniProt O15123 275-496, limits assumed)
T1 construct: domain: FLD domain; also called HuANGPT2; human ANGPT2 FLD domain
T1 sequence (looked up): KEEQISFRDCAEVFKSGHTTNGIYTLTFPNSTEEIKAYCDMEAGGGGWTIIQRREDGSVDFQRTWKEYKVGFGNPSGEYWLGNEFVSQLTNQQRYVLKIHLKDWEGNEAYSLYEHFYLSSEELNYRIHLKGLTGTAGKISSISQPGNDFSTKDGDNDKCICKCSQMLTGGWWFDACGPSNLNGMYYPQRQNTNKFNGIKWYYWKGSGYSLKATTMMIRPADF
Assay: SPR (ProteOn XPR36), antibody captured on Protein A/G, ANGPT2 as analyte, 1:1 Langmuir fit
The threshold is 0.2 nM. Values of Kd beneath it are tagged True; values meeting or exceeding it are tagged False.

| binder | qualitative.label |
| --- | --- |
| ANGPT2-opt-1 (humanized) (antibody, human IgG1, kappa, V domains shown, also called Ang2-opt-1) VH: QVQLVQSGAEVKKPGSSVKVSCKASGYIFIDYFINWVRQAPGQGLEWMGKIGPGSGSSSSNEKFKGRVTITADKSTSTAYMELSSLRSEDTAVYYCAREAFDYEGDYYGMAYWGQGTLVTVSS VL: EIVMTQSPATLSVSPGERATLSCKSSQSLLASGNQKNFLAWYQQKPGQAPRLLIYGASTRESGIPARFSGSGSGTEFTLTISSLQSEDFAVYYCQNDHSYPITFGQGTKLEIKR | False |
| ANGPT2-opt-31 (humanized) (antibody, human IgG1, kappa, V domains shown, also called Ang2-opt-31) VH: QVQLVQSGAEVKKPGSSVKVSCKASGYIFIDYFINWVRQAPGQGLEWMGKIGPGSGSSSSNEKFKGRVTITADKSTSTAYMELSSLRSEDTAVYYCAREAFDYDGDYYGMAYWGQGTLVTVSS VL: EIVMTQSPATLSVSPGERATLSCKSSQSLLSSGNQKSFLAWYQQKPGQAPRLLIYGASTRESGIPARFSGSGSGTEFTLTISSLQSEDFAVYYCQNDHSYPITFGQGTKLEIKR | True |
| ANGPT2-opt-2 (humanized) (antibody, human IgG1, kappa, V domains shown, also called Ang2-opt-2; ANGP12-opt-2) VH: QVQLVQSGAEVKKPGSSVKVSCKASGYIFIEYFINWVRQAPGQGLEWMGKIGPGSGSSSSNEKFKGRVTITADKSTSTAYMELSSLRSEDTAVYYCAREAFDYEGDYYGMAYWGQGTLVTVSS VL: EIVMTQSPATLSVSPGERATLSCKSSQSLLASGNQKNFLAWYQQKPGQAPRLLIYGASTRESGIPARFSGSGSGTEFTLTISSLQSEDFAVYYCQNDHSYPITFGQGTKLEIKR | False |
| chimeric lead CL-209881 (antibody, V domains shown, Chimeric antibody with murine variable domains; the constant regions of the tested antibody are not) VH: QVQLKQSGAELVKPGSSVKISCRASGYIFIDYFINWVKQRPGQGLEWIGKIGPGSGSSSSNEKFKGKATLTADKSSSTAYMQLSSLTSEDSAVYFCAREAFDYDGDYYGMAYWGQGTSVTVSS VL: DIVMTQSPSSLSVSAGEKVTMSCKSSQSLLNSGNQKNFLAWYQQKPGQPPKLLIYGASTRESGVPDRFTGSGSGTDFTLTITSVQAEDLAVYYCQNDHSYPITFGSGTKLEIK | True |
| ANGPT2-opt-13 (humanized) (antibody, human IgG1, kappa, V domains shown, also called Ang2-opt-13; ANGPT-opt-13) VH: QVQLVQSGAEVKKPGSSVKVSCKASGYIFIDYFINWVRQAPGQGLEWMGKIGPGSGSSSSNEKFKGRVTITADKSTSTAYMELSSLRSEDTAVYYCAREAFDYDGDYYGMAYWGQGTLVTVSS VL: EIVMTQSPATLSVSPGERATLSCKSSQSLLSSGNQKSFLAWYQQKPGQAPRLLIYGASTRETGIPARFSGSGSGTEFTLTISSLQSEDFAVYYCQNDHSYPITFGQGTKLEIKR | True |

Hello, the source for this data is patent US20200407435A1, in case you need it.
